# run.description: Pharmacokinetic parameter half life determined after intravenous administration of 60 mg/kg to rat
# Type: ADME, organism-based
# Design: dose 60 mg/kg, route intravenous
# study.conditions: in vivo

{"compound": "CCC1(N(CCO)C(=O)c2ccccc2CCC(O)Cc2ccc(C)cc2C(=O)N(CCO)C(C)(C)c2ccc(OCc3cccnc3)cc2)CCCC1 (stereo unspecified)", "units.label": "h", "half-life": 1}

###

# run.description: Fraction of compound bio available orally in dog at dosage 15(mg/kg) by po administration.
# Type: ADME, organism-based, Canis lupus familiaris
# study.conditions: in vivo

{"compound": "CCC1(N(CCO)C(=O)c2ccccc2CCC(O)Cc2ccc(C)cc2C(=O)N(CCO)C(C)(C)c2ccccc2)CCCC1 (stereo unspecified)", "bioavailability": "3%"}
